B1: IFRG15 (parent)
chain: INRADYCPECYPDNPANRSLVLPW

variants of: B1; experiment: protein stability index of a GFP-peptide fusion (GPS, HEK-293T) (PSI 1-6); higher = more stable; details: c terminus: a fixed tail appended;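 also: lentivirally expressed fusions sorted by FACS into six bins by GFP to DsRed ratio, PSI derived from sequencing read proportions per bin multiplied by bin number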
Parameter Measured: protein stability index
Number, no unit, nothing else.

> print(dat)
              residue.codes       parameter.measured  result.number
1  INRADYCPECYPDNPANRSLILPW  protein stability index           1.97

// protein stability index lookup, key: `CNRADYCPECYPDNPANRSLVLPW`
2.53

Numbers sourced from the supplement of paper PMC10567573.
